These entries and their values trace back to ChEMBL document CHEMBL4725290.

Test: Competitive inhibition of bovine pancreas trypsin assessed as release of para-nitroaniline using L-BAPA as substrate in presence of 4-nitrophenyl 4-guanidinobenzoate hydrochloride as inhibitor at pH 7.2 at 25 degC
Design: species or system Bos taurus
pKi: −log10 of the molar value.
Classification field: enter 1 for pKi values not below 3, 0 for values below it.

- CHEM_SMILES: "CON(C)C(=O)c1ccc(NC(=N)N)nc1"
  LABEL_VALUE: 0

Prompt line: Determine whether measured pKi meets or exceeds 3 for CC(=O)c1ccc(NC(=N)N)nc1
Response line: 0

Prompt line: Determine whether measured pKi meets or exceeds 3 for N=C(N)Nc1ccc(Cl)cn1
Response line: 1

Prompt line: Determine whether measured pKi meets or exceeds 3 for N=C(N)Nc1ccc(C=O)cn1
Response line: 1

Prompt line: Determine whether measured pKi meets or exceeds 3 for N=C(N)Nc1ccncn1
Response line: 1

Prompt line: Determine whether measured pKi meets or exceeds 3 for CN(C)/C=N/c1ccc(Br)cn1
Response line: 0

====

Assay: Competitive inhibition of bovine trypsin using Z-Arg-SBzl as substrate at pH 7.5 at 25 degC
Parameters: species or system Bos taurus
MEASURED_ENDPOINT: Ki (µM)
Quick reminder: number only, in µM, skip the unit.

# Ki of N=C(N)c1ccccc1 = 35

====

Assay: Competitive inhibition of bovine pancreas trypsin assessed as release of para-nitroaniline using L-BAPA as substrate in presence of 4-nitrophenyl 4-guanidinobenzoate hydrochloride as inhibitor at pH 7.2 at 25 degC
Design: species or system Bos taurus
pKi: −log10 of the molar value.
Classification field: enter label 1 for pKi values not below 4, label 0 for values below it.

Reference set, count: 2
- CHEM_SMILES: "N=C(N)Nc1ccc(F)cn1"
  LABEL_VALUE: "label 0"
- CHEM_SMILES: "N=C(N)Nc1ccc(I)cn1"
  LABEL_VALUE: "label 1"

Prompt line: Determine whether measured pKi meets or exceeds 4 for Cc1cccnc1NC(=N)N
Response line: label 1

Prompt line: Determine whether measured pKi meets or exceeds 4 for N=C(N)Nc1ccc(C(F)(F)F)cn1
Response line: label 0

====

Experiment: Competitive inhibition of bovine pancreas trypsin assessed as release of para-nitroaniline using L-BAPA as substrate in presence of 4-nitrophenyl 4-guanidinobenzoate hydrochloride as inhibitor at pH 7.2 at 25 degC
Design: species or system Bos taurus
MEASURED_ENDPOINT: pKi
Just so you know, pKi here is -log10 of the concentration in molar units; reply with that number alone.

Reference set (5 entries):
- CHEM_SMILES: "N=C(N)Nc1ccccn1"
  pKi: 4.08
- CHEM_SMILES: "Cc1ccc(NC(=N)N)nc1"
  pKi: 3.98
- CHEM_SMILES: "N=C(N)Nc1ccc(Cl)cc1"
  pKi: 3.90
- CHEM_SMILES: "Cc1cccc(NC(=N)N)n1"
  pKi: 4.04
- CHEM_SMILES: "Cc1ccnc(NC(=N)N)c1"
  pKi: 3.92

# pKi of COC(=O)c1ccc(NC(=N)N)nc1.O=C(O)C(F)(F)F = 2.97

# pKi of N=C(N)Nc1ccc(-c2ccccc2)cn1 = 3.02

# pKi of N=C(N)Nc1ccc(Br)cn1 = 4.69

# pKi of N=C(N)Nc1cccnc1 = 3.02
